- Tested on: UO-31 renal
- assay overview: NCI tumour cell line growth inhibition, 48 h
parameter measured: TGI (µM)
Answers are plain numbers, in µM.

# compound, TGI (µM)
records = [
    ("CSC(=O)c1sc(SC)[n+](-c2ccccc2)c1O", 31.4),
    ("O=C(Nc1cccc(C(F)(F)F)c1)Nc1cccc(C(F)(F)F)c1", 4.21),
    ("COCOC1/C=C/CCCCC(=O)C(C)C#CC1 (stereo not drawn)", 18.9),
    ("CCOC(=O)CCC(NC(=O)C(N)Cc1ccc(N(CCCl)CCCl)cc1)C(=O)OCC (stereo not drawn)", 2.92),
    ("C=C1c2nc3ccccc3n2C=C(c2ccc(OC)cc2)N1c1ccc(OC)cc1", 58.5),
    ("Cc1ccc(-c2nc(N3CCNCC3)c3oc(-c4ccc(C)cc4)nc3n2)cc1", 3.57),
    ("c1ccc(-c2n(Cc3ccc4ccccc4n3)cc[n+]2Cc2ccc3ccccc3c2)cc1", 13.2),
    ("O=[N+]([O-])c1ccc2nc(Nc3ccccc3)c(Nc3ccccc3)nc2c1", 2.57),
    ("C#Cc1cccc(Nc2nc3cc([N+](=O)[O-])ccc3nc2Nc2ccc(O)cc2)c1", 3.12),
    ("C=C1C(=O)O[C@@H]2/C=C(C)/C=C\\[C@@H]3O[C@@]3(C)C[C@@H](O)C12 (stereo partly drawn)", 30.1),
]

Each compound below has a recorded value; state its TGI.
1. C=C1C[C@H](O)[C@H](Br)C(C)(C)[C@@]12CCC(C)=C(Cl)C2
2. O=S1C(=c2ccc(=C3Sc4ccccc4S3)cc2)Sc2ccccc21 (stereo not drawn)

1: 3.25; 2: 35.2
